Assay system: T1, GDF-11 (UniProt O95390 299-407)
T1 construct: also called growth and differentiation factor 11
T1 sequence (looked up): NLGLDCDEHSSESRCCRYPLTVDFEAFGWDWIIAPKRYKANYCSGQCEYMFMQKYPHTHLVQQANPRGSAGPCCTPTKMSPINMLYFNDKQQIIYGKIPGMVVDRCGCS
Experiment notes: SPR (Biacore 8K), Fc protein captured on anti-human IgG, ligand injected
Measured Kd values are reported for all entries that follow.
Measurement label: Kd

binder="ActRIIB-A7 (SEQ ID NO: 125) chimera-Fc protein (Fc fusion, Tested as chimera-Fc protein; not shown: linker (if any) and Fc domain) GRGEAETRECIYYNANWELERTNQSGLERCEGEQDKRLHCYASWRNSSGTIELVKKGCWLDDFNCYDRQECVATEENPQVYFCCCEGNMCNERFTHLPEAGGPEVTYEPPPTAPT" measured_value="< 1 pM"
binder="ActRIIB-B5 (SEQ ID NO: 114) chimera-Fc protein (Fc fusion, Tested as chimera-Fc protein; not shown: linker (if any) and Fc domain) GRGEAETRECIYYNANWELERTNQSGLERCEGEQDKRLHCYASWRNSSGTIELVKKGCWLDDFNCYDRQECVEKEENPQVYFCCCEGNFCNERFTHLPEAGGPEVTYEPPPTAPT" measured_value="< 1 pM"
binder="ActRIIA-A3 (SEQ ID NO: 106) chimera-Fc protein (Fc fusion, Tested as chimera-Fc protein; not shown: linker (if any) and Fc domain) GAILGRSETQECLFFNANWEKDRTNQTGVEPCEGEQDKRRHCFATWKNISGSIEIVKQGCWLDDINCYDRTDCVEKKDSPEVYFCCCEGNMCNEKFSYFPEMEVTQPTS" measured_value="< 1 pM"
binder="ActRIIB-B3 (SEQ ID NO: 112) chimera-Fc protein (Fc fusion, Tested as chimera-Fc protein; not shown: linker (if any) and Fc domain) GRGEAETRECIYYNANWELERTNQSGLERCEGEQDKRRHCFATWKNISGTIELVKKGCWLDDFNCYDRQECVATEENPQVYFCCCEGNFCNERFTHLPEAGGPEVTYEPPPTAPT" measured_value="1.17 pM"
